- procedure details: APR_HepG2_MitoMembPot_72hr: Apredica 72-hour HepG2 Assay for Mitochondrial Membrane Potential (AID 2282917)
- study conditions: imaging, actives raise or lower the signal
Active and inactive are the calls of the source. The calls were made as follows: active = hit-call score of the fitted dose curve at least 0.9, where 1 is the maximum; inactive = score below 0.9.
quantity measured: AC50

>>> endpoint_result("Cc1cc(N=Nc2ccccc2C)ccc1N")
"inactive"
>>> endpoint_result("c1ccc(N=Nc2ccccc2)cc1")
"inactive"
>>> endpoint_result("N#CC(Br)Br")
"inactive"
>>> endpoint_result("CCC[CH2][Sn]([Cl])([CH2]CCC)[CH2]CCC")
"inactive"
>>> endpoint_result("Oc1ccc2ccc3cccc4ccc1c2c34")
"75.4 µM (active)"
>>> endpoint_result("Nc1ccc(Cc2ccc(N)cc2)cc1")
"inactive"
>>> endpoint_result("COC(=O)Nc1nc2ccccc2[nH]1")
"inactive"
>>> endpoint_result("CN(C)[C@@H]1C(=O)C(C(N)=O)=C(O)[C@@]2(O)C(=O)C3=C(O)c4c(O)cccc4[C@@](C)(O)[C@H]3C[C@@H]12")
"inactive"
>>> endpoint_result("c1ccc(C2CO2)cc1 (stereo unspecified)")
"inactive"
>>> endpoint_result("CN(C)c1ccc(C(=O)c2ccc(N(C)C)cc2)cc1")
"inactive"
>>> endpoint_result("ClC1=C(Cl)C2(Cl)C3C(Cl)C=CC3C1(Cl)C2(Cl)Cl (stereo unspecified)")
"inactive"
>>> endpoint_result("CCOC(=O)[C@]1(c2ccccc2)Oc2ccccc2[C@@H]1N")
"inactive"
>>> endpoint_result("CC(C)(OOC(C)(C)c1ccccc1)c1ccccc1")
"inactive"
>>> endpoint_result("COC(=O)c1ccccc1N")
"inactive"
>>> endpoint_result("CCCCOC(=O)c1ccccc1C(=O)OCc1ccccc1")
"inactive"
>>> endpoint_result("Nc1ccc([N+](=O)[O-])cc1")
"inactive"
>>> endpoint_result("C=CCc1ccc2c(c1)OCO2")
"inactive"
>>> endpoint_result("O=[N+]([O-])C(Br)(CO)CO")
"inactive"
>>> endpoint_result("Oc1ccccc1Cl")
"inactive"
>>> endpoint_result("CCCCCCCCCCCCCN1CC(C)OC(C)C1 (stereo unspecified)")
"inactive"
>>> endpoint_result("[As]#[In]")
"inactive"
>>> endpoint_result("CC(C)N(Cc1ccccc1)C(=O)C(C)(C)C")
"inactive"
>>> endpoint_result("CC(C)(O)c1cnn2c(-c3ccc(F)c(-c4c(F)cccc4C#N)c3)cnc2n1")
"83.9 µM (active)"
>>> endpoint_result("[Cl-].[Cl-].[Hg+2]")
"inactive"
>>> endpoint_result("c1ccc(NNc2ccccc2)cc1")
"inactive"
>>> endpoint_result("C1=Cc2cccc3cccc1c23")
"inactive"
>>> endpoint_result("CCC(C)c1ccc(O)cc1 (stereo unspecified)")
"inactive"
>>> endpoint_result("O=C(Nc1ccccc1)c1ccccc1I")
"inactive"
>>> endpoint_result("Cc1ccc(N=C=O)cc1N=C=O")
"inactive"
>>> endpoint_result("O=C1CCCO1")
"inactive"
>>> endpoint_result("O=[N+]([O-])c1ccc(Oc2ccc(Cl)cc2Cl)cc1")
"inactive"
>>> endpoint_result("CCCCCCCCn1sccc1=O")
"96.1 µM (active)"
>>> endpoint_result("Nc1ccc(Oc2ccc(N)cc2)cc1")
"inactive"
>>> endpoint_result("CS(=O)(=O)NC(=O)c1cc(Oc2ccc(C(F)(F)F)cc2Cl)ccc1[N+](=O)[O-]")
"inactive"
>>> endpoint_result("CCCCC(CC)COC(=O)c1ccc(C(=O)OCC(CC)CCCC)c(C(=O)OCC(CC)CCCC)c1 (stereo unspecified)")
"inactive"
>>> endpoint_result("CCN(CC)CCO")
"inactive"

Source listed as PubChem BioAssay (EPA / NIEHS).
